species: Rattus norvegicus; assay: DrugMatrix - Regimen: Daily Repeat; assay type: toxicity, organism-based, Sprague-Dawley; set-up: regimen Daily Repeat, gender Male, age 6-8 weeks; details: in vivo, po, 0 mg/kg, 120 h, tissue Plasma, route oral GAVAGE, dose level Control, time 5 day, vehicle .5 % CMC
Property label: ALANINE AMINOTRANSFERASE (u/L)

- Cc1cc2c(s1)Nc1ccccc1N=C2N1CCN(C)CC1: 49
- O=C1c2ccccc2C(=O)C1c1ccccc1: 38
- COc1cc(NC(C)CCCN)c2ncccc2c1 (stereo not drawn): 26.33

----------
species: Rattus norvegicus; test: DrugMatrix - Regimen: Daily Repeat; assay type: toxicity, organism-based, Sprague-Dawley; set-up: regimen Daily Repeat, gender Male, age 6-8 weeks; conditions: in vivo, po, 0 mg/kg, 120 h, tissue Blood, route oral GAVAGE, dose level Control, time 5 day, vehicle .5 % CMC
# note: exactly 90% is not below, so it is F; use T for LYMPHOCYTE strictly under it

* CC(C)Cc1ccc([C@H](C)C(=O)O)cc1 [DEXIBUPROFEN] | T
* CCN1CCCC1CNC(=O)c1cc(S(N)(=O)=O)ccc1OC (stereo not given) [SULPIRIDE] | F
* CC(C)(C#N)c1cc(Cn2cncn2)cc(C(C)(C)C#N)c1 [ANASTROZOLE] | F

Attribution: ChEMBL document CHEMBL3885881
